Catalogue of compounds with associated activation
target or system: Kallikrein-7 (Homo sapiens) (UniProt P49862)
Sequence (P49862 whole entry, looked up): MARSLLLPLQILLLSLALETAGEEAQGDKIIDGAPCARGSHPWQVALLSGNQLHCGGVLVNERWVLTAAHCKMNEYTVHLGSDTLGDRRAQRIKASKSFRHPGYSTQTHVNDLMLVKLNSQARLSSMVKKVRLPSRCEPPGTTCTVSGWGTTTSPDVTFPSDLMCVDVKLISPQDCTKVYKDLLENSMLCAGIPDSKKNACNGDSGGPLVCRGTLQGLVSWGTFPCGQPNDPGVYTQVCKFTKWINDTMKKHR
test method notes: activation of human kallikrein-7 proenzyme – biochemical, fluorescence intensity, primary screen (AID 652039)
experimental setup: purified proKLK7, EDANS-DABCYL substrate fluorescence; at 7 µM; stronger effect = higher value; 100% is mature enzyme control, 0% vehicle
About 3,300 (0.89%) of roughly 370,000 compounds were called active. The sample holds actives, similar compounds and a random draw of the others, so the mix is not that of the screen.
Lab book: enter the figure in %, no units written.

{"columns": ["compound", "measured value"],
 "data": [
  ["CCCCOCCCNC(=O)C[C@H]1C[C@@]2(C(=O)OC)C(=C[C@H](C(C)(C)C)O[C@@H]2C)N(CCc2ccc(OC)c(OC)c2)C1=O", -0.83]
]}

In: What value of activation on Kallikrein-7 (Homo sapiens) (UniProt P49862) does O=C(CNS(=O)(=O)c1ccccc1F)N1CCN(c2ccccn2)CC1 have?
Out: -0.03

In: Same read-out for COc1ccnc(C(=O)N2CCC(Oc3cccnc3)CC2)c1 ?
Out: 0.48

In: Same read-out for CC[C@@H](CCC(=O)N(c1ccccc1)c1ccccc1)C1CC1 ?
Out: 0.23

In: Same read-out for COc1cccc(NC(=O)COc2cc(C)cc3oc(=O)cc(C)c23)c1 ?
Out: -0.24

In: Same read-out for Cc1nn(Cc2ccccc2)c(C)c1C(=O)NCCCN1CCCC1=O ?
Out: -0.1

In: Same read-out for COc1ccc(-n2c(SCC(=O)Nc3ccc4c(c3)OCCO4)nnc2-c2ccc(Cl)cc2)cc1 ?
Out: -0.65

In: Same read-out for Cc1cc2nc3c(=O)[nH]c(=O)nc-3n(C[C@H](O)[C@H](O)[C@H](O)CO)c2cc1C ?
Out: -49.4

In: Same read-out for O=C(COc1ccc2c3c(c(=O)oc2c1)CCCC3)NCC(O)c1ccccc1 (stereo not given) ?
Out: -0.24

In: Same read-out for CC(=O)c1ccc(NC(=O)CSc2nc3ccccc3c(=O)n2CCCN2CCOCC2)cc1 ?
Out: 0.28

====

target or system: Kallikrein-7 (Homo sapiens)
test method notes: activation of human kallikrein-7 proenzyme – biochemical, fluorescence intensity, primary screen (AID 652039)
experimental setup: purified proKLK7, EDANS-DABCYL substrate fluorescence; at 7 µM; 100% is mature enzyme control, 0% vehicle
In all, about 370,000 compounds went through this assay and about 3,300 (0.89%) were called active.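 How the source made its calls: active means activation above the mean of all tested compounds plus 3 SD, computed per campaign excluding outliers beyond control limits (cut at about 13% in these data); inactive means the rest.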 This excerpt belongs to a sample that is enriched for actives.
Would you mind answering with one of these outcomes? active, inactive

{"columns": ["molecule", "classification"],
 "data": [
  ["O=C(OC1CCOC1=O)c1ccc(-c2nc3ccccc3s2)s1 (stereo not given)", "active"],
  ["COC(=O)[C@]12C[C@H](CC(=O)NCc3ccccc3)C(=O)N(CCc3ccc(OC)c(OC)c3)C1=C[C@H](C(C)(C)C)O[C@@H]2C", "inactive"],
  ["Cc1ccc(NS(=O)(=O)c2ccc3c(c2)NC(=O)CO3)cc1", "inactive"],
  ["Cc1ccc(-c2nc(C3CCCN(S(=O)(=O)c4ccc(Br)s4)C3)no2)cc1 (stereo not given)", "inactive"],
  ["CCOC(CNC(=O)C(=O)NCC(c1ccco1)N1CCN(c2ccc(OC)cc2)CC1)OCC (stereo not given)", "inactive"],
  ["COc1cc(C(=O)OC2CCOC2=O)c([N+](=O)[O-])cc1OC (stereo not given)", "inactive"],
  ["CN(c1ccc2nc3ccccc3c(=O)n2n1)C1CCCCC1", "inactive"],
  ["CN(CCNC(=O)c1cc2c(-c3ccccc3F)nn(C)c2s1)C1CCCCC1", "inactive"],
  ["CCOCCCNC(=O)c1cn(CC(C)C)c(=O)c2c1c1ccccc1n2C", "inactive"]
]}

In: Hello, I am checking results. What call was entered for COCCCNC(=O)/C(C#N)=C/c1c(N2CCCCCC2)nc2ccccn2c1=O ?
Out: inactive

====

Catalogue of compounds with associated activation
target or system: Kallikrein-7 (Homo sapiens) (UniProt P49862)
test method notes: activation of human kallikrein-7 proenzyme – biochemical, fluorescence intensity, primary screen (AID 652039)
experimental setup: purified proKLK7, EDANS-DABCYL substrate fluorescence; at 7 µM; stronger effect = higher value; 100% is mature enzyme control, 0% vehicle
Out of some 370,000 compounds screened, about 3,300 (0.89%) were called active. The sample holds actives, similar compounds and a random draw of the others, so the mix is not that of the screen.
Lab book: enter the figure in %, no units written.

Reference set, count: 4
{"columns": ["compound string", "unit spec", "measured value"],
 "data": [
  ["C=CCN1[C@@H](Cc2ccccc2)COc2cccc(N3CCSCC3)c2S1(=O)=O", "%", 0.85],
  ["CN(C)S(=O)(=O)c1cccc(C(=O)N/N=C\\c2ccco2)c1", "%", -0.04],
  ["O=C(CSc1ncccn1)NC(=O)NCc1ccccc1", "%", -0.82],
  ["Cc1sc2nc(SCC(=O)c3ccc(O)c(O)c3)n(Cc3ccco3)c(=O)c2c1C", "%", -0.81]
]}

In: GET /values?readout=activation&item= COC(=O)[C@]12C[C@H](CC(=O)NCc3ccccc3)C(=O)N(Cc3ccccc3)C1=C[C@H](COCc1ccccc1)O[C@@H]2C
Out: -0.24

====

target or system: Kallikrein-7 (Homo sapiens) (UniProt P49862)
test method notes: activation of human kallikrein-7 proenzyme – biochemical, fluorescence intensity, primary screen (AID 652039)
experimental setup: purified proKLK7, EDANS-DABCYL substrate fluorescence; at 7 µM; stronger effect = higher value; 100% is mature enzyme control, 0% vehicle
In all, about 370,000 compounds went through this assay and about 3,300 (0.89%) were called active. This excerpt belongs to a sample that is enriched for actives.
Catalogue of molecules with associated activation

{"columns": ["molecule", "activation"],
 "data": [
  ["C#CCCN([C@H](C(=O)OC)C(C)C)S(=O)(=O)c1ccc(F)cc1Br", "-0.16% (inactive)"],
  ["Cc1ccc(CN2CCCCC(NC(=O)C3CCCCC3)C2=O)cc1 (stereo not given)", "-0.03% (inactive)"],
  ["COc1ccccc1C(=O)Nc1cccc(C(=O)N2CCOCC2)c1", "0.2% (inactive)"],
  ["CN(C(N)=NC(=O)/C=C/c1ccccc1)C(C#Cc1ccccc1)Cc1ccccc1 (stereo not given)", "-0.15% (inactive)"],
  ["COc1ccc(Cn2cc(COC(=O)N(C)Cc3ccccc3)nn2)cc1", "0.16% (inactive)"],
  ["COc1cc(NC(=O)C2CCCN(S(=O)(=O)c3ccc(C(C)(C)C)cc3)C2)cc(OC)c1 (stereo not given)", "0.22% (inactive)"],
  ["CNc1cncc(-c2cccc(C(=O)N3CCOCC3)c2)n1", "49.4% (active)"],
  ["CCCc1cc(=O)oc2c(C)c(OC(C)C(=O)NCC(O)c3ccccc3)ccc12 (stereo not given)", "-0.01% (inactive)"]
]}

In: GET /values?readout=activation&item= O=C(c1cccc(N2CCCC2=O)c1)N1CCOCC1
Out: -0.32% (inactive)

In: Same read-out for COc1cc(/C=C/C(=O)Nc2ccc(OC)c(S(=O)(=O)N3CCOCC3)c2)ccc1OCC#N ?
Out: 40.2% (active)

====

target or system: Kallikrein-7 (Homo sapiens)
test method notes: activation of human kallikrein-7 proenzyme – biochemical, fluorescence intensity, primary screen (AID 652039)
experimental setup: purified proKLK7, EDANS-DABCYL substrate fluorescence; at 7 µM; stronger effect = higher value; 100% is mature enzyme control, 0% vehicle
Among all 370,000 compounds or so, about 3,300 (0.89%) were called active. The full list was thinned out, with actives kept by preference.
Catalogue of molecules with associated activation

{"columns": ["molecule", "activation"],
 "data": [
  ["CC(=O)Nc1nc(C)c(-c2csc(Nc3ccc(S(N)(=O)=O)cc3)n2)s1", "118% (active)"]
]}

In: GET /values?readout=activation&item= CN(CC1CCCO1)S(=O)(=O)c1ccc(C(=O)Nc2ccc(F)cc2)cc1 (stereo not drawn)
Out: -0.36% (inactive)

In: Same read-out for COc1cccc(NC(=O)CN(C)C(=O)Cc2ccc(Cl)cc2Cl)c1 ?
Out: -0.14% (inactive)

In: Same read-out for CN(C)Cc1c(O)ccc2c(=O)c(-c3ccccc3Cl)coc12 ?
Out: 40.3% (active)

In: Same read-out for O=C(C1CCCN1S(=O)(=O)c1ccccc1)N1CCc2ccccc2C1 (stereo not drawn) ?
Out: -0.08% (inactive)

In: Same read-out for CN(C)CCN1CCN(c2cc(-c3cccc(Cl)c3)nc3ccnn23)CC1 ?
Out: 18.8% (active)

====

target or system: Kallikrein-7 (Homo sapiens)
test method notes: activation of human kallikrein-7 proenzyme – biochemical, fluorescence intensity, primary screen (AID 652039)
experimental setup: purified proKLK7, EDANS-DABCYL substrate fluorescence; at 7 µM; stronger effect = higher value; 100% is mature enzyme control, 0% vehicle
Screen size: about 370,000 compounds; about 3,300 (0.89%) were called active. What follows is part of a selection rich in actives, with near analogues and random picks from the rest.
Catalogue of molecules with associated activation
Lab book: enter the figure in %, no units written.

Reference set, count: 3
{"columns": ["molecule", "target or system", "measured value"],
 "data": [
  ["CCCCN1CCN(C(=O)c2ccc3c(c2)NC(=O)C(C)(C)O3)CC1", "Kallikrein-7 (Homo sapiens)", 0.18],
  ["O=C(Nc1cccc(Cl)c1)OC1CC2CC1[C@H]1CCCCN1[C@H]2Cc1ccccc1 (stereo not given in full)", "Kallikrein-7 (Homo sapiens)", -0.47],
  ["C#CCN([C@H](C(=O)OC)C(C)CC)S(=O)(=O)c1ccccc1Br (stereo not given in full)", "Kallikrein-7 (Homo sapiens)", 0.19]
]}

In: GET /values?readout=activation&item= CCOC(=O)c1ccc(N2C(=O)CC(N(C)Cc3ccccc3)C2=O)cc1 (stereo not given)
Out: 0.66

In: Same read-out for CCN(C(=O)[C@@H](C1CC1)[C@@H](O)c1ccc2ccccc2c1)c1ccccc1 ?
Out: 0.13

In: Same read-out for COC1=C[C@H](C(=O)NCCNC(C)=O)[C@H](C)[C@@H](c2ccccc2)CC1=O ?
Out: 0.74

In: Same read-out for CCc1ccccc1NC(=O)CSc1nnc(-c2cccs2)o1 ?
Out: 0.68

In: Same read-out for CCC(Oc1ccccc1)C(=O)OCC(=O)Nc1c(C)nn(-c2ccccc2)c1C (stereo not given) ?
Out: -0.3

In: Same read-out for O=C(NC1CCC1)c1ccc(C#Cc2cccc(F)c2)c[n+]1[O-] ?
Out: -0.32

In: Same read-out for O=S1(=O)c2c(cccc2N2CCSCC2)Oc2ccccc2CN1Cc1cn(Cc2ccc(F)cc2)nn1 ?
Out: -2.26
